Origin of the recorded values: PubChem BioAssay (NCATS)

assay: Quantitative High-Throughput drug screen in 47 multiple myeloma cell lines against the NCATS MIPE library collection: LP1_DSMZ cell viability assay (AID 1918982); settings: LP1 myeloma viability, CellTiter-Glo ATP luminescence, 48 h; series mostly up to 45.8 µM; also: nearly all actives have a fitted effect of over 35% in size
Results filed as inconclusive are left out. Activity calls are given as the source filed them. Calls follow the shape of the dose curve; as a rule, active = well fitted cell-killing curve with a large enough effect; inconclusive = small, poorly fitted or top-dose-only effect, or effect the other way; inactive = no such curve, though single readings can be large or run the other way.
Labels: YES (active), NO (inactive)

>  <Compound>
Cc1ccccc1C(=O)Nc1ccc(C(=O)N2CCCC(O)c3cc(Cl)ccc32)c(C)c1 (configuration not stated)

>  <Assigned category>
YES

$$$$
>  <Compound>
Cc1cnn(C)c1C(=O)Nc1cc(Nc2ccc3c(C=Cc4ccccn4)n[nH]c3c2)ccc1F

>  <Assigned category>
YES

$$$$
>  <Compound>
COc1cc(C)c(Sc2cnc(NC(=O)c3ccc(CNC(C)C(C)(C)C)cc3)s2)cc1C(=O)N1CCN(C(C)=O)CC1 (configuration not stated)

>  <Assigned category>
YES

$$$$
>  <Compound>
COc1cc(C=CC(=O)CC(=O)C=Cc2ccc(O)c(OC)c2)ccc1O

>  <Assigned category>
YES

$$$$
>  <Compound>
C[C@H](NCc1ccc2c(c1)nc(NC(=O)c1ccc(-c3cn[nH]c3)s1)n2CCc1ccccc1)C(C)(C)C

>  <Assigned category>
YES

$$$$
>  <Compound>
CCCCCCCCc1ccc(CCC(N)(CO)CO)cc1

>  <Assigned category>
YES

$$$$
>  <Compound>
C[C@]12C=CC(=O)N[C@@H]1CC[C@H]1[C@H]3CC[C@@H](C(=O)Nc4cc(C(F)(F)F)ccc4C(F)(F)F)[C@@]3(C)CC[C@@H]12

>  <Assigned category>
NO

$$$$
>  <Compound>
CC(=O)ON=C1C(c2c(O)[nH]c3cc(Br)ccc23)=Nc2ccccc21

>  <Assigned category>
YES

$$$$
>  <Compound>
C[C@@]12C(=O)OC(=O)[C@@]1(C)C1CCC2O1

>  <Assigned category>
YES

$$$$
>  <Compound>
NC(=O)c1cccc(-c2cccc(OC(=O)NC3CCCCC3)c2)c1

>  <Assigned category>
NO

$$$$
>  <Compound>
Nc1nc(=O)n([C@H]2CSC(CO)O2)cc1F (some centres not stated)

>  <Assigned category>
NO

$$$$
>  <Compound>
COc1cc(C(C)C)c(Oc2cnc(NC(CO)CO)nc2N)cc1I

>  <Assigned category>
NO

$$$$
>  <Compound>
CC(=O)NC(CS)C(=O)O (configuration not stated)

>  <Assigned category>
NO

$$$$
>  <Compound>
O=c1c(O)c(-c2ccc(O)c(O)c2)oc2cc(O)ccc12

>  <Assigned category>
YES

$$$$
>  <Compound>
O=C(O)C(=O)Nc1cccc(C2=NN=N[N]2)c1

>  <Assigned category>
NO

$$$$
>  <Compound>
CN(CC(=O)N(Cc1ccc(C2CCCCC2)cc1)c1ccc(C(=O)O)c(O)c1)S(=O)(=O)c1c(F)c(F)c(F)c(F)c1F

>  <Assigned category>
YES

$$$$
>  <Compound>
Cc1ccc2nc(NCCN)c3ncc(C)n3c2c1

>  <Assigned category>
YES

$$$$
